Values from patent US20050192289A1

# Measured on: CCR1 receptor (Homo sapiens, UniProt P32246)
# Construct: host or cells: THP-1
# Protocol text: In vitro Ca2+-flux assay on human monocytes (THP-1 cells stimulated with MIP-1α)
# Format: cell-based
# Study conditions: block of MIP-1α mediated Ca2+ mobilisation in THP-1 cells; Fluo-4
pIC50: −log10 of the molar value. Where a name gives a salt, the structure may show the parent alone.
Test readout: pIC50

Example results:
molecule="C[C@@H]1CN(C(=O)/C=C/c2ccc3nonc3c2)[C@@H](C)CN1Cc1ccc(F)cc1 (racemic)" test_readout=pIC50 measurement=7.92
molecule="COc1cc(/C=C/C(=O)N2CCN(Cc3ccc(F)cc3)CC2)cc(OC)c1OC [Compound A, reference compound]" test_readout=pIC50 measurement=6.96
molecule="C[C@@H]1CN(C(=O)/C=C/c2ccc(Cl)c([N+](=O)[O-])c2)[C@@H](C)CN1Cc1ccc(F)cc1 (racemic)" test_readout=pIC50 measurement=8.40
molecule="C[C@@H]1CN(C(=O)/C=C/c2ccc(Cl)c([N+](=O)[O-])c2)[C@@H](C)CN1Cc1ccc(Cl)cc1 (racemic)" test_readout=pIC50 measurement=8.22

A. O=C(/C=C/c1ccc(Cl)cc1Cl)N1CCN(Cc2ccc(Cl)cc2)CC1 [Compound C, reference compound]
B. C[C@H]1CN(C(=O)/C=C/c2ccc(Cl)cc2)[C@@H](C)CN1Cc1ccc(F)cc1 (racemic) [Compound 9.1, reference compound]
Query block: Pick the one with the larger pIC50: A vs B Please identify the chosen entry by its label.
Result block: A
(A: 6.92, B: 6.04)

I. C[C@@H]1CN(C(=O)/C=C/c2ccc(Cl)cc2Cl)[C@@H](C)CN1Cc1ccc(F)cc1 (racemic) [Compound 5.6, hydrochloride]
II. C[C@@H]1CN(C(=O)/C=C\c2ccc(Cl)cc2)[C@@H](C)CN1Cc1ccc(F)cc1 (racemic) [Compound 8.1, reference compound]
III. C[C@@H]1CN(Cc2ccc(F)cc2)C[C@H](C)N1C(=O)/C=C/c1ccc(Cl)cc1 [F, reference compound]
Query block: Ascending sort, pIC50. The reply should contain the labels ordered as requested.
Result block: III, II, I

1. COc1cc(/C=C/C(=O)N2C[C@@H](C)N(Cc3ccc(F)cc3)C[C@@H]2C)cc(OC)c1OC (racemic)
2. C[C@@H]1CN(C(=O)/C=C/c2ccc([N+](=O)[O-])cc2)[C@@H](C)CN1Cc1ccc(F)cc1 (racemic)
Query block: Returns: the label, 1 or 2 , whose recorded pIC50 is the lower number. Bench note: the answer is the label of the chosen record.
Result block: 2

====

# Protocol text: In vivo bioavailability in the mouse (cassette dosing, i.v. or oral)
# Study conditions: mouse, plasma half-life, female mice (SJL/N Tac), nominal dose 1 mg/kg/compound
Test readout: half-life (h)

a. C[C@@H]1CN(C(=O)/C=C/c2ccc(Cl)cc2)[C@@H](C)CN1Cc1ccc(F)cc1 (racemic)
b. C[C@@H]1CN(C(=O)/C=C/c2ccc3nonc3c2)[C@@H](C)CN1Cc1ccc(F)cc1 (racemic)
Query block: When a and b are compared, which has the higher number for half-life? Let me know the label of the one you choose.
Result block: a
(a: 5.3 h, b: 2.3 h)

====

# Measured on: cloned human CCR1 Chemokine receptor (Homo sapiens, UniProt P32246)
# Sequence (P32246 1-355): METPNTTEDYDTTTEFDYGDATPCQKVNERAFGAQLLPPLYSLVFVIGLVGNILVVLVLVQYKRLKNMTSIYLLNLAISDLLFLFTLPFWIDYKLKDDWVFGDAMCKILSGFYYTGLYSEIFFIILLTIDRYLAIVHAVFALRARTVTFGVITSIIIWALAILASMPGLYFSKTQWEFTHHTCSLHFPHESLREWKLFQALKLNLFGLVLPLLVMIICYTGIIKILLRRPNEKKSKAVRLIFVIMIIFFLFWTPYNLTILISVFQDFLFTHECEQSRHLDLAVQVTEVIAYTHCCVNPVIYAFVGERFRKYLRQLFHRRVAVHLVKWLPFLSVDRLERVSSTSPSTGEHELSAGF
pIC50: −log10 of the molar value.
The entries below come with measured pIC50 values attached.

Illustrative cases are given below, each with its answer.
compound="C[C@@H]1CN(C(=O)/C=C\\c2ccc(Cl)cc2)[C@@H](C)CN1Cc1ccc(F)cc1 (racemic) [Compound 8.1, reference compound]" measurement="< 6.00"
compound="C[C@@H]1CN(Cc2ccc(F)cc2)C[C@H](C)N1C(=O)/C=C/c1ccc(Cl)cc1 [F, reference compound]" measurement="< 6.00"

Query block: Could you share which pIC50 value was measured for O=C(/C=C\c1ccc(Cl)cc1)N1CCN(Cc2ccc(F)cc2)CC1 [Compound 8.2, reference compound] ?
Result block: < 6.00

====

# Measured on: UniProtKB P32246
# Protocol text: In vitro Ca2+-flux assay on human monocytes (THP-1 cells stimulated with MIP-1α)
# Study conditions: block of MIP-1α mediated Ca2+ mobilisation in THP-1 cells; Fluo-4
# Experimental: The binding of Mip-1α at the CCR1 receptor leads to an increase of intracellular calcium levels. The ability of the compounds of the invention to block this biologic response of the CCR1 receptor is determined in the Ca^2+-flux assay. In vitro Ca^2+-Flux Assay on Human Monocytes • 1. […] A serial dilution was made and nine concentrations of each compound were screened to generate a dose curve from which the IC50 value was determined. • 6. […]
Test readout: IC50 (nM)

compound="C[C@@H]1CN(C(=O)/C=C/c2cc(Cl)c3nsnc3c2)[C@@H](C)CN1Cc1ccc(F)cc1 (racemic)" measurement=7
compound="C[C@@H]1CN(C(=O)/C=C/c2ccc(Cl)cc2)[C@@H](C)CN1Cc1ccc(F)cc1 (racemic)" measurement=9
compound="O=C(/C=C/c1ccc(Cl)cc1)N1CCN(Cc2ccc(F)cc2)CC1 [B, reference compound]" measurement=63
